# Test system: glioblastoma cells (U87)
# Protocol Description: IC50 for inhibiting cell growth in glioblastoma cells (U87)
# Format: cell-based, human
# Condition Info: Homo sapiens, inhibition of cell growth
Property: IC50 (µM)

As a guide, the following entries are already answered.
Compound: Nc1cc(N2CCCC(CCCc3ccccc3)(C(=O)O)C2)nc(N)n1 (stereo not drawn)
IC50 / µM: 39
//
Compound: Nc1nccc(N2CCCC(CO)(CCCc3ccccc3)C2)n1 (stereo not drawn)
IC50 / µM: 9
//
Compound: Nc1cc(N2CCC(CO)(CCCc3ccccc3)CC2)nc(N)n1
IC50 / µM: 2.5
//
Compound: Cc1nccc(N2CCCC(CO)(CCCc3ccccc3)C2)n1 (stereo not drawn)
IC50 / µM: 19

(a) Nc1nccc(N2CCC(CO)(CCCc3ccccc3)CC2)n1
(b) Nc1cc(N2CCCC(CO)(CCCc3ccccc3)C2)nc(N)n1 (stereo not drawn)
(c) Nc1cc(N2CCCC(CO)(CCCc3ccccc3)C2)ncn1 (stereo not drawn)
(d) Nc1nccc(N2CCCC(CCc3ccccc3)C2)n1 (stereo not drawn)
q: Ordering: ascending IC50. The response must list the labels following the requested ordering.
a: d, a, b, c

###

# Tested on: astrocyte cells (non-cancer control)
# Protocol Description: IC50 for inhibiting cell growth in astrocyte cells (non-cancer control)
# Assay type: cell-based, human
# Condition Info: inhibition of cell growth
Property: pIC50
The quantity pIC50 is defined as the negative base-10 logarithm of the molar concentration.

q: Look up and report measured pIC50 (astrocyte cells (non-cancer control)) for the following compound: Nc1cc(N2CCCC(CO)(CCCc3ccccc3)C2)nc(N)n1 (stereo not shown) [H]
a: 4.23

// data source = patent US11957682B2
